Just for reference, patent US9067914B1 is where these values come from.

Items are presented alongside their recorded pIC50.
- Target entity: TrkB (Homo sapiens (Human))
- Sequence (Q16620 32-822): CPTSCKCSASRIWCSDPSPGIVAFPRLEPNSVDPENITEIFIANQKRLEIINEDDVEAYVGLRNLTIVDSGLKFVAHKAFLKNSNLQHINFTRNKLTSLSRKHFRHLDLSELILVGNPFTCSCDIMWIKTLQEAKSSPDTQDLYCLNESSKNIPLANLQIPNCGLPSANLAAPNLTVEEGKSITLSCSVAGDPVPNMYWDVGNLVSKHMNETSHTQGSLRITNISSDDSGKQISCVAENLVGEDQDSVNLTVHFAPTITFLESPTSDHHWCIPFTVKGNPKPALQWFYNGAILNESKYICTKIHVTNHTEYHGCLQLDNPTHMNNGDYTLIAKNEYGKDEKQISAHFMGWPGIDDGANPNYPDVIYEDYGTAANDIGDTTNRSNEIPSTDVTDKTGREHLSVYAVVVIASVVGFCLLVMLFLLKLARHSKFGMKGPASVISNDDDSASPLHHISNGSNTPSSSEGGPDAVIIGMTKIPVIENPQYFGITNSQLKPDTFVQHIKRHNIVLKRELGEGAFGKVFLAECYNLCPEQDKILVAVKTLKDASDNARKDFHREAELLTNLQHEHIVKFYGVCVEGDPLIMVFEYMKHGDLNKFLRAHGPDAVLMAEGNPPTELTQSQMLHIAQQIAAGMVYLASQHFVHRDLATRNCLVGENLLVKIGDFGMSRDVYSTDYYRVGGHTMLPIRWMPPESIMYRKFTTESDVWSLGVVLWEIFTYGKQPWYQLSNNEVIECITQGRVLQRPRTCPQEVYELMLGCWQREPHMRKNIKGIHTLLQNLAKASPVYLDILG
- Method summary: TrkB activity, off-chip mobility shift assay (LabChip 3000)
- Assay type: biochemical
- Applied conditions: 70 μM ATP (ATP Km); n/d = none detected
- Source text: Reagents and consumables were purchased from Sigma Aldrich, Carna Biosciences, or Caliper Life Sciences. All assay reaction conditions for IC50 determinations were within the linear range with respect to time and enzyme concentration. […] Results are expressed as percent conversion by measuring peak height for both the substrate and product and dividing the product peak height by the sum of peak heights for both substrate and product.
In textbook form, pIC50 equals minus log to base ten of the concentration in mol/L.

Examples from the recorded data:
Exam item: Consider the compound shown here: COc1ccc(COc2ccc(Cn3cnc4cc(C5=CC6(O)CCCN5C6)cnc43)cc2OC)cn1 (centres unmarked) [Ex. 3-32] What is its recorded pIC50?
Marked response: 6.82

Exam item: Can you check COc1cc(Cn2c(N)nc3cc(-c4cnn(C)c4)cnc32)ccc1OCc1csc(C)n1 [Ex. 3-35-5] next?
Marked response: 9.70

Exam item: Can you check COc1ccc(COc2ccc(Cn3cnc4cc(N5CCN(C)CC5=O)ccc43)cc2OC)cn1 [Ex. 3-29] next?
Marked response: 5.37

Exam item: Can you check COc1ccc(COc2ccc(Cn3cnc4cc(N5CCC(N)CC5)ccc43)cc2OC)cn1 [Ex. 3-12] next?
Marked response: 6.20

Exam item: Can you check COc1ccc(COc2ccc(Cn3cnc4cc(N5CCOCC5)cnc43)cc2OC)cn1 [Ex. 3-18-2] next?
Marked response: 7.51

***
Exam item: Consider the compound shown here: COc1ccc(COc2ccc(Cn3cnc4cc(C5=CC6(C)CCCN5C6)cnc43)cc2OC)cn1 (centres unmarked) [Ex. 3-30] What is its recorded pIC50?
Marked response: 6.93

Exam item: Can you check COc1ccc(COc2ccc(Cn3c(N)nc4cc(C#CCCO)cnc43)cc2OC)cn1 [Ex. 3-42] next?
Marked response: 8.52

Exam item: Can you check COc1ccc(COc2ccc(Cn3c(N)nc4cc(-c5cnn(C)c5)cnc43)cc2OC)cc1 [Ex. 3-15] next?
Marked response: 10.00
